Target: T1, human CD70 expressed on the cell surface of tumor cell lines (human, UniProt P32970 1-193)
T1 construct: whole, on cells
T1 sequence (looked up): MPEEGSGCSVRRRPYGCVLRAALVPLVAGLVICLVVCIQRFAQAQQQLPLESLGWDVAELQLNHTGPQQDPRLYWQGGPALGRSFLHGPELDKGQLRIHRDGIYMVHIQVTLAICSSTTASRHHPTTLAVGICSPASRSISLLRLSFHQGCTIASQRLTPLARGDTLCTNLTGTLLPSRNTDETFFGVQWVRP
Assay Comment: flow cytometry on DBTRG-05MG cells, PE anti-human Fc, MFI; same fit as Table 6, which prints it in nM
Outcome Measure: EC50 (µg/mL)
Provide only the numeric value, understood in µg/mL.

Reported EC50 of 69A7 (parent antibody), full IgG (antibody, V domains shown, also called parent antibody 69A7) VH: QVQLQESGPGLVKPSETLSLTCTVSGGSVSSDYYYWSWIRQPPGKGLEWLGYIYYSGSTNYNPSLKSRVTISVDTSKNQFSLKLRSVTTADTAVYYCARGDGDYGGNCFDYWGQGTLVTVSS VL: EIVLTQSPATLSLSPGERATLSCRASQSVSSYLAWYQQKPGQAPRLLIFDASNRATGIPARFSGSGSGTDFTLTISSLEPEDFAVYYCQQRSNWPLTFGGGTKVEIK : 1.7

Reported EC50 of 1H8, full IgG (antibody, V domains shown) VH: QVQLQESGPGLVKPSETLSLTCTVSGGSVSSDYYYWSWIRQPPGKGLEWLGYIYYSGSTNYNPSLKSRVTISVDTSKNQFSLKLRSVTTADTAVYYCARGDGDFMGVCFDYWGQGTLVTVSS VL: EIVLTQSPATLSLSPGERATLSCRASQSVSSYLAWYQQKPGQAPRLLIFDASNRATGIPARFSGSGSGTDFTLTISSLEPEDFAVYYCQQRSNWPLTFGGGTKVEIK : 1.44

Reported EC50 of 2D2, full IgG (antibody, V domains shown) VH: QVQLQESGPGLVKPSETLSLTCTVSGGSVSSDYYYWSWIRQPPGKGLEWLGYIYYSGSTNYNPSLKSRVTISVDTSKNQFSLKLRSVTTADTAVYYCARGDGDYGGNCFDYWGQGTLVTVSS VL: EIVLTQSPATLSLSPGERATLSCRASQSVSSYLAWYQQKPGQAPRLLIFDASNRATGIPARFSGSGSGTDFTLTISSLEPEDFAVYYCQQRLKFPLTFGGGTKVEIK : 2.06
